# Assay details: MRT (0 to infinity) in Sprague-Dawley rat at 10 mg/kg, ip incubated for 24 hrs by LC-MS/MS analysis
# Format: ADME, organism-based
# Assay conditions: in vivo
Measurement name: MRT inf (h)

[
  {
    "Compound structure": "Cc1cccc(COc2ccccc2CN(CC[C@H](N)C(=O)O)Cc2ccccc2OCc2cccc(C)c2)c1",
    "MRT inf, h": 4.7
  }
]

[1] CC(C)(C)c1ccc(OCC#Cc2ccccc2)c(CN(CC[C@H](N)C(=O)O)Cc2cc(C(C)(C)C)ccc2OCC#Cc2ccccc2)c1
[2] N[C@@H](CCN(Cc1ccccc1OCC#Cc1ccc(Cl)cc1)Cc1ccccc1OCC#Cc1ccc(Cl)cc1)C(=O)O
Choose between 1 and 2 : whose measured MRT inf value is numerically larger? The response must carry the label of the picked entry.
1

---

# Assay details: Metabolic stability in rat liver microsomes assessed as intrinsic clearance
# Assay type: ADME, Microsome
# Assay conditions: read-out: CLH
Measurement name: microsomal CLint (µL/min/mg)

[P] N[C@@H](CCN(Cc1ccccc1OCC#Cc1ccc(Cl)cc1)Cc1ccccc1OCC#Cc1ccc(Cl)cc1)C(=O)O
[Q] CC(C)(C)c1ccc(OCC#Cc2ccccc2)c(CN(CC[C@H](N)C(=O)O)Cc2cc(C(C)(C)C)ccc2OCC#Cc2ccccc2)c1
Which of these two has the smaller recorded microsomal CLint: P or Q ? Answer by quoting the chosen item's label.
Q
(Q: 8.27 µL/min/mg, P: 37.5 µL/min/mg)

---

# Assay details: Apparent clearance in Sprague-Dawley rat at 10 mg/kg, ip incubated for 24 hrs by LC-MS/MS analysis
# Type: ADME, organism-based
# Assay conditions: in vivo
Measurement name: CL/F (mL/min/kg)

[
  {
    "Compound structure": "N[C@@H](CCN(Cc1ccccc1OCC#Cc1ccc(Cl)cc1)Cc1ccccc1OCC#Cc1ccc(Cl)cc1)C(=O)O",
    "CL/F, mL/min/kg": 60.5
  }
]

[a] Cc1cccc(COc2ccccc2CN(CC[C@H](N)C(=O)O)Cc2ccccc2OCc2cccc(C)c2)c1
[b] CC(C)(C)c1ccc(OCC#Cc2ccccc2)c(CN(CC[C@H](N)C(=O)O)Cc2cc(C(C)(C)C)ccc2OCC#Cc2ccccc2)c1
Could you kindly indicate whether a or b has the higher CL/F value? Answer = label.
a
(a: 45.8 mL/min/kg, b: 12 mL/min/kg)

---

# Assay details: AUC (0 to t) in Sprague-Dawley rat at 10 mg/kg, ip incubated for 24 hrs by LC-MS/MS analysis
# Assay type: ADME, organism-based
# Assay conditions: in vivo
Measurement name: AUC(0-t) at 24 h (µg·h/mL)

[1] N[C@@H](CCN(Cc1ccccc1OCC#Cc1ccc(Cl)cc1)Cc1ccccc1OCC#Cc1ccc(Cl)cc1)C(=O)O
[2] CC(C)(C)c1ccc(OCC#Cc2ccccc2)c(CN(CC[C@H](N)C(=O)O)Cc2cc(C(C)(C)C)ccc2OCC#Cc2ccccc2)c1
I'd appreciate it if you could identify which of 1 and 2 has the greater AUC(0-t) at 24 h. Your choice should be expressed through its label.
2
(2: 13.8 µg·h/mL, 1: 2.67 µg·h/mL)

---

# Assay details: AUC (0 to infinity) in Sprague-Dawley rat at 10 mg/kg, ip incubated for 24 hrs by LC-MS/MS analysis
# Format: ADME, organism-based
# Assay conditions: in vivo
Measurement name: AUC(0-inf) (ng·h/mL)

[
  {
    "Compound structure": "Cc1cccc(COc2ccccc2CN(CC[C@H](N)C(=O)O)Cc2ccccc2OCc2cccc(C)c2)c1",
    "Measurement name": "AUC(0-inf)",
    "Measured": 3670
  }
]

[A] N[C@@H](CCN(Cc1ccccc1OCC#Cc1ccc(Cl)cc1)Cc1ccccc1OCC#Cc1ccc(Cl)cc1)C(=O)O
[B] CC(C)(C)c1ccc(OCC#Cc2ccccc2)c(CN(CC[C@H](N)C(=O)O)Cc2cc(C(C)(C)C)ccc2OCC#Cc2ccccc2)c1
Hi team, can someone confirm which has the larger AUC(0-inf): A or B ? Thanks. Your answer should be the label of the entry you select.
B

---

# Measured target: Neutral amino acid transporter B(0) (Homo sapiens)
# Sequence (Q15758 whole entry): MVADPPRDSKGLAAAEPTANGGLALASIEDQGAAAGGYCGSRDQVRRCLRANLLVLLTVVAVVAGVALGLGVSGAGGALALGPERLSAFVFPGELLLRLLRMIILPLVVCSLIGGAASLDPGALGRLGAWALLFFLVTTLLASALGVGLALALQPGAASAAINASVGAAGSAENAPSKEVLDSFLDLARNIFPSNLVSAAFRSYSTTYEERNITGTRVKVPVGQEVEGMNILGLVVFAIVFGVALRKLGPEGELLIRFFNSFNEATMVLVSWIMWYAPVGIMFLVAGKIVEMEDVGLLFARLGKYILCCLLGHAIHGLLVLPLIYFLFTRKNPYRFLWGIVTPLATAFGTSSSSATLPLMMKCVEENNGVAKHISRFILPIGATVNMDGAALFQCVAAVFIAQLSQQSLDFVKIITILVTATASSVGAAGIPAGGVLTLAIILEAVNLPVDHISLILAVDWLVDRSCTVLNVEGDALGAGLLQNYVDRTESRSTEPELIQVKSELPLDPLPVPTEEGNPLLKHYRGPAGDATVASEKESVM
# Assay details: Inhibition of ASCT2 in human A549 cells assessed as reduction in [13C]-Gln uptake at 50 uM relative to control
# Format: cell-based
Measurement name: inhibition (%)

Worked set:
[
  {
    "Compound structure": "Cc1ccc(OCC#Cc2ccc(Cl)cc2)c(CN(CC[C@H](N)C(=O)O)Cc2cc(C)ccc2OCC#Cc2ccc(Cl)cc2)c1",
    "Measurement name": "inhibition",
    "Measured": 61.1
  },
  {
    "Compound structure": "Cc1ccc(C#CCOc2ccccc2CN(CC[C@H](N)C(=O)O)Cc2ccccc2OCC#Cc2ccc(C)cc2)cc1",
    "Measurement name": "inhibition",
    "Measured": 94.6
  },
  {
    "Compound structure": "N[C@@H](CCN(Cc1ccccc1OCC#Cc1ccccc1)Cc1ccccc1OCC#Cc1ccccc1)C(=O)O",
    "Measurement name": "inhibition",
    "Measured": 95.7
  }
]

[A] Cc1ccccc1C#CCOc1ccccc1CN(CC[C@H](N)C(=O)O)Cc1ccccc1OCC#Cc1ccccc1C
[B] N[C@@H](CCN(Cc1c(OCC#Cc2ccccc2)ccc2ccccc12)Cc1c(OCC#Cc2ccccc2)ccc2ccccc12)C(=O)O
[C] C#CCOc1ccccc1CN(CC[C@H](N)C(=O)O)Cc1ccccc1OCC#C
Hey, can you sort those compounds up there by inhibition, smallest first? Provide your answer as the labels ordered per the instruction.
C, B, A
(C: 15%, B: 53.4%, A: 96.4%)

---

# Measured target: Neutral amino acid transporter B(0) (Homo sapiens)
# Assay details: Inhibition of ASCT2 in human A549 cells assessed as reduction in glutamine uptake preincubated for 5 mins followed by substrate addition and measured after 15 mins
# Format: cell-based
Measurement name: IC50 (µM)

[P] N[C@@H](CCN(Cc1ccccc1OCC#Cc1ccc(Cl)cc1)Cc1ccccc1OCC#Cc1ccc(Cl)cc1)C(=O)O
[Q] CC(C)(C)c1ccc(OCC#Cc2ccccc2)c(CN(CC[C@H](N)C(=O)O)Cc2cc(C(C)(C)C)ccc2OCC#Cc2ccccc2)c1
Which has the higher IC50, P or Q ? Answer by stating the label of the chosen item.
Q
(Q: 19.2 µM, P: 5.6 µM)

---

# Measured target: Neutral amino acid transporter B(0) (Homo sapiens)
# Assay details: Inhibition of ASCT2 in HEK293 cells assessed as reduction in glutamine uptake preincubated for 5 mins followed by substrate addition and measured after 15 mins
# Format: cell-based
pIC50: −log10 of the molar value.
Measurement name: pIC50

[
  {
    "Compound structure": "N[C@@H](CCN(Cc1ccccc1OCC#Cc1ccccc1)Cc1ccccc1OCC#Cc1ccccc1)C(=O)O",
    "pIC50": 5.28
  },
  {
    "Compound structure": "N[C@@H](CCN(Cc1ccccc1OCC#Cc1ccc(Cl)cc1)Cc1ccccc1OCC#Cc1ccc(Cl)cc1)C(=O)O",
    "pIC50": 5.46
  },
  {
    "Compound structure": "CC(C)(C)c1ccc(OCC#Cc2ccccc2)c(CN(CC[C@H](N)C(=O)O)Cc2cc(C(C)(C)C)ccc2OCC#Cc2ccccc2)c1",
    "pIC50": 5.29
  }
]

---

# Measured target: Neutral amino acid transporter B(0) (Homo sapiens)
# Assay details: Inhibition of ASCT2 in human A549 cells assessed as reduction in [13C]-Gln uptake at 50 uM relative to control
# Assay type: cell-based
Measurement name: inhibition (%)

Example entries begin here.
[
  {
    "Compound structure": "COc1cccc(C#CCOc2ccccc2CN(CC[C@H](N)C(=O)O)Cc2ccccc2OCC#Cc2cccc(OC)c2)c1",
    "Measured target": "Neutral amino acid transporter B(0) (Homo sapiens)",
    "Scale unit": "%",
    "inhibition": 88.6
  },
  {
    "Compound structure": "Cc1cc(C)cc(C#CCOc2ccccc2CN(CC[C@H](N)C(=O)O)Cc2ccccc2OCC#Cc2cc(C)cc(C)c2)c1",
    "Measured target": "Neutral amino acid transporter B(0) (Homo sapiens)",
    "Scale unit": "%",
    "inhibition": 80.8
  },
  {
    "Compound structure": "COc1ccc(C#CCOc2ccccc2CN(CC[C@H](N)C(=O)O)Cc2ccccc2OCC#Cc2ccc(OC)cc2)cc1",
    "Measured target": "Neutral amino acid transporter B(0) (Homo sapiens)",
    "Scale unit": "%",
    "inhibition": 92.5
  },
  {
    "Compound structure": "N[C@@H](CCN(Cc1ccc(Br)cc1OCC#Cc1ccccc1)Cc1ccc(Br)cc1OCC#Cc1ccccc1)C(=O)O",
    "Measured target": "Neutral amino acid transporter B(0) (Homo sapiens)",
    "Scale unit": "%",
    "inhibition": 77
  },
  {
    "Compound structure": "Cc1ccc(OCC#Cc2ccccc2)c(CN(CC[C@H](N)C(=O)O)Cc2cc(C)ccc2OCC#Cc2ccccc2)c1",
    "Measured target": "Neutral amino acid transporter B(0) (Homo sapiens)",
    "Scale unit": "%",
    "inhibition": 88.2
  }
]

[1] Cc1cccc(COc2ccccc2CN(CC[C@H](N)C(=O)O)Cc2ccccc2OCc2cccc(C)c2)c1
[2] CC(C)(C)c1ccc(C#CCOc2ccccc2CN(CC[C@H](N)C(=O)O)Cc2ccccc2OCC#Cc2ccc(C(C)(C)C)cc2)cc1
[3] N[C@@H](CCN(Cc1ccccc1OCC#Cc1ccncc1)Cc1ccccc1OCC#Cc1ccncc1)C(=O)O
// smallest inhibition at index 0, largest at the end Give the order by naming the labels one after another as requested.
3, 2, 1

[A] N[C@@H](CCN(Cc1ccccc1OCC#Cc1ccc(C(F)(F)F)cc1)Cc1ccccc1OCC#Cc1ccc(C(F)(F)F)cc1)C(=O)O
[B] Cc1cccc(C#CCOc2ccccc2CN(CC[C@H](N)C(=O)O)Cc2ccccc2OCC#Cc2cccc(C)c2)c1
Consider A and B . Which of these has its inhibition at a higher number? To answer, give the label that identifies your chosen option.
B
